Here, each record is paired with measured IC50 data.
molecular target: long isoform of human D2 receptor (Homo sapiens); assay: cAMP HTRF Agonist Assay (DRD2L PathHunter CHO-K1 cells, forskolin-stimulated)
Sequence (P14416 whole entry, canonical isoform): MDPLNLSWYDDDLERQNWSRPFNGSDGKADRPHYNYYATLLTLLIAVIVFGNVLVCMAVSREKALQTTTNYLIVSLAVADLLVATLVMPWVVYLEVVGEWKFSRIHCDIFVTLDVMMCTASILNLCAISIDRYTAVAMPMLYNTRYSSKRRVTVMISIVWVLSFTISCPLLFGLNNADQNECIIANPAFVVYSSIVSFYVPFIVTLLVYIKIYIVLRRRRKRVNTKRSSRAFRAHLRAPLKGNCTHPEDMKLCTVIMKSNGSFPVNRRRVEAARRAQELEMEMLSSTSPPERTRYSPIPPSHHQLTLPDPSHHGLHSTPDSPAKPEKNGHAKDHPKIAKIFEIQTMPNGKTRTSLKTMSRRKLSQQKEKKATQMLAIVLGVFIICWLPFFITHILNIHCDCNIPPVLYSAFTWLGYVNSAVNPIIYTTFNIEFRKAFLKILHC

O=C1CCc2ccc(OCCCCN3CCc4c(cccc4C(F)(F)F)C3)nc2N1 [Compound 77]
0.01 to 0.1 µM
N#Cc1ccc2c(c1)CCN(CCCCOc1ccc3c(n1)NC(=O)CC3)C2 [Compound 73]
> 10 µM
N#Cc1cccnc1N1CCN(CCCCOc2ccc3cccc(O)c3n2)CC1 [Compound 22]
< 0.01 µM
O=C1NCCc2ccc(OCCCCN3CCc4cc(F)ccc4C3)nc2N1 [Compound 84]
> 10 µM
O=c1ccc2ccc(OCCCCN3CCc4ccsc4C3)nc2[nH]1 [Compound 54]
> 10 µM
CCS(=O)(=O)Nc1cccc(OCCCCN2CCc3ccccc3C2)n1 [Compound 43]
> 10 µM
Oc1cccc2ccc(OCCCCN3CCc4cc(C(F)(F)F)ccc4C3)nc12 [Compound 17]
> 10 µM
O=C1NCCc2ccc(OCCCCN3CCc4nn(-c5ccccn5)cc4C3)nc2N1 [Compound 90]
< 0.01 µM

Prompt: Entry under review: O=C1CCc2ccc(OCCCCN3CCc4nn(-c5ccccn5)cc4C3)cc2N1 [Compound 38] . Reported IC50?
Response: < 0.01 µM

Prompt: // returns reported IC50 for input COc1cccnc1N1CCN(CCCCOc2ccc3cn[nH]c3c2)CC1 [Compound 99]
Response: < 0.01 µM

Prompt: Quick check: IC50 of O=C1CCc2ccc(OCCCCN3CCc4ccsc4C3)nc2N1 [Compound 70] ?
Response: > 10 µM

Prompt: Which IC50 reading was recorded for the compound Cc1ccc2c(c1)CN(CCCCOc1ccc3ccc(=O)[nH]c3n1)CC2 [Compound 65] ?
Response: < 0.01 µM

Prompt: Item under review: Clc1cccc(N2CCN(CCCCOc3ccc4cn[nH]c4c3)CC2)c1 [Compound 98] . Reported IC50?
Response: 0.01 to 0.1 µM
